# System: CD2F1 mice, L1210 leukemia ip, survival T/C
# protocol_notes: NCI In Vivo Anticancer Drug Screen. Data for tumor model L1210 Leukemia (intraperitoneal) in CD2F1 (CDF1) mice
# details: endpoint: mean survival time; dose: 25.0 mg/kg/injection; schedule: Q04DX002 (ip); vehicle: saline with Tween-80; higher = longer survival
Toxic doses and inconclusive results are not listed.
measure: T/C

Nc1nc(N)nc(Cl)n1	90 % of control
N#C/C(=C\C1CCC(Cl)C(Cl)C1)C1CCC([N+](=O)[O-])CC1 (stereo unspecified)	94 % of control
C=C(C)C1CCC2(C=O)CCC3(C)C(CCC4C5(C)CCC(OC6CCCCO6)C(C)(C)C5CCC43C)C12 (stereo unspecified)	100 % of control
C/C(=N/O)C1=C(O)C(Cc2ccccc2)NC1=O (stereo unspecified)	121 % of control
CC(=O)OC(CCl)C(Cl)CCl (stereo unspecified)	106 % of control
CC(/C=N/O)=N\O.CC(/C=N/O)=N\O.[Pd]	102 % of control
